measurement.target: AMPK alpha2/beta1/gamma1 (Homo sapiens) (UniProt P54646+P54619+Q9Y478)
Sequence (P54619 whole entry partner): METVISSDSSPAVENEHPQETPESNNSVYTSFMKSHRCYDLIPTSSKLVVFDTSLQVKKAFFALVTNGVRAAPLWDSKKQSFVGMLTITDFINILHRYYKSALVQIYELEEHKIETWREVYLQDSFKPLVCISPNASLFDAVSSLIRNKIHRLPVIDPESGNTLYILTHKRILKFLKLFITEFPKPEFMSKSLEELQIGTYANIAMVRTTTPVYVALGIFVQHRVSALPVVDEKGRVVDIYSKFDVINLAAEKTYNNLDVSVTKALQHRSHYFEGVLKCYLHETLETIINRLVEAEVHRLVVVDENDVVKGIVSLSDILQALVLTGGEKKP
Sequence (P54646 whole entry): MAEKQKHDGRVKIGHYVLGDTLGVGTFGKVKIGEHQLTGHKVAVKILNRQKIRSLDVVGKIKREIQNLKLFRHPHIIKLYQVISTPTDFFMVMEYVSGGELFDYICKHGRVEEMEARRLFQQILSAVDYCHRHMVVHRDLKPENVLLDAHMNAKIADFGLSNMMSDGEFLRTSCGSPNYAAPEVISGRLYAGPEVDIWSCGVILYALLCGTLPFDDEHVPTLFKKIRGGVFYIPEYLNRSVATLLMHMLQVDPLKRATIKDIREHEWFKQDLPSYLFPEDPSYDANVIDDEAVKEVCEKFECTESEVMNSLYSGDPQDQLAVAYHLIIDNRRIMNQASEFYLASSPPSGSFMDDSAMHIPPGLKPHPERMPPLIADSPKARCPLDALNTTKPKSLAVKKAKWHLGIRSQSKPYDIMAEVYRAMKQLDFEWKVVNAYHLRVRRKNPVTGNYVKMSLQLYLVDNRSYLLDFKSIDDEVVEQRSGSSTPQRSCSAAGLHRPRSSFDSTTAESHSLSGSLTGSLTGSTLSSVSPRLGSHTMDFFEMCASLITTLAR
Sequence (Q9Y478 2-270 partner limits assumed): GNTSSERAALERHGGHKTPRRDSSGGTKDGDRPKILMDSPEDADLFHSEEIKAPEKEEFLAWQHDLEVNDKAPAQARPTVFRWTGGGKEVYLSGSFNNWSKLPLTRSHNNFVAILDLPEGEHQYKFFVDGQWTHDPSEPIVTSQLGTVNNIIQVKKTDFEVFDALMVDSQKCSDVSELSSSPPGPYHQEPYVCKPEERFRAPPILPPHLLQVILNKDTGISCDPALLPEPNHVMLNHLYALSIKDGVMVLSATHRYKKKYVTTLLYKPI
assay.info: Activation of recombinant AMPKalpha2beta1gamma1 (unknown origin) expressed in Escherichia coli BL21 in presence of CaMKKbeta (unknown origin) incubated for 45 mins in presence of substrate-1 peptide and ATP by HTRF assay relative to untreated control
experimental.endpoint: fold change (FC)

CC(C)=CCC[C@](C)(O[C@@H]1O[C@H](CO[C@@H]2OC[C@H](O)[C@H](O)[C@H]2O)[C@@H](O)[C@H](O)[C@H]1O)[C@H]1CC[C@]2(C)[C@@H]1[C@H](O)C[C@@H]1[C@@]3(C)CC[C@H](O[C@@H]4O[C@H](CO)[C@@H](O)[C@H](O)[C@H]4O[C@@H]4O[C@H](CO)[C@@H](O)[C@H](O)[C@H]4O)C(C)(C)[C@@H]3CC[C@]12C [GINSENOSIDE RB2] : 4.7
CC(C)=CCC[C@](C)(O[C@@H]1O[C@H](CO[C@@H]2OC[C@H](O)[C@H](O)[C@H]2O)[C@@H](O)[C@H](O)[C@H]1O)[C@H]1CC[C@]2(C)[C@@H]1[C@H](O)C[C@@H]1[C@@]3(C)CC[C@H](O[C@@H]4O[C@H](CO)[C@@H](O)[C@H](O)[C@H]4O[C@@H]4O[C@H](CO)[C@@H](OC(=O)CC(=O)O)[C@H](O)[C@H]4O)C(C)(C)[C@@H]3CC[C@]12C : 1.7 to 4.7
CC(C)=CCC[C@](C)(O[C@@H]1O[C@H](CO[C@@H]2O[C@H](CO)[C@@H](O)[C@H](O)[C@H]2O)[C@@H](O)[C@H](O)[C@H]1O)[C@H]1CC[C@]2(C)[C@@H]1[C@H](O)C[C@@H]1[C@@]3(C)CC[C@H](O[C@@H]4O[C@H](CO)[C@@H](O)[C@H](O)[C@H]4O[C@@H]4O[C@H](COC(=O)CC(=O)O)[C@@H](O)[C@H](O)[C@H]4O)C(C)(C)[C@@H]3CC[C@]12C : 1.7 to 4.7

Now turn to the next molecule.
I am curious: what fold change (FC) value has been reported for CC(C)=CCC[C@](C)(O[C@@H]1O[C@H](CO[C@@H]2O[C@H](CO)[C@@H](OC(=O)CC(=O)O)[C@H](O)[C@H]2O)[C@@H](O)[C@H](O)[C@H]1O)[C@H]1CC[C@]2(C)[C@@H]1[C@H](O)C[C@@H]1[C@@]3(C)CC[C@H](O[C@@H]4O[C@H](CO)[C@@H](O)[C@H](O)[C@H]4O[C@@H]4O[C@H](CO)[C@@H](O)[C@H](O)[C@H]4O)C(C)(C)[C@@H]3CC[C@]12C ?
1.7 to 4.7

Hello, the source for this data is ChEMBL document CHEMBL4177549, in case you need it.
